For each of the binders below, state its EC50 (read off the curve).
# TARGET_DESC: T1, cynomolgus monkey C-KIT, full length, on CHO-K1 cells (cynomolgus monkey)
# T1 construct: whole, on cells; also called cyno C-KIT+ CHO-K1 cells
# TEST_METHOD_NOTES: flow cytometry, C-KIT-transfected CHO-K1 cells, IgG1 format

// returns reported EC50 (read off the curve) for input MH5.1 (antibody, IgG1, V domains shown, IgG1; also called C-KIT-MH5.1) VH: QVQLVQSGAEVKKPGASVKVSCKASGYTFTNYYMNWVRQAPGQGLEWMGRIYPGTGNTYYAQKFQGRVTMTRDTSTSTVYMELSSLRSEDTAVYYCARGVWYYDYWGQGTLVTVSS VL: DIQMTQSPSSLSASVGDRVTITCRASQGIRTNLAWFQQKPGKAPKSLIYAASSLQSGVPSRFSGSGSGTDFTLTISSLQPEDFATYYCQQYANYPRTFGGGTKVEIK ~0.2 µg/mL

What measured EC50 (read off the curve) goes with MH5.35 (antibody, IgG1, V domains shown, IgG1; also called C-KIT-MH5.35) VH: QVQLVQSGAEVKKPGASVKVSCKASGYTFTNYYMNWVRQAPGQGLEWMGRIYPASGNTYYAQKFQGRVTMTRDTSTSTVYMELSSLRSEDTAVYYCARGVWYFDTWGQGTLVTVSS VL: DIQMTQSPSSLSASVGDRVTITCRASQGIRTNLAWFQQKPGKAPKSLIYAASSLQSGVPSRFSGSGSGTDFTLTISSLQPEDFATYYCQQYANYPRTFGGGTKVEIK ? ~0.2 µg/mL

Entry under review: chimeric anti-C-KIT antibody m37M, human IgG1 (antibody, V domains shown) VH: QVQLKQSGAELVRPGASVKLSCKASGYTFTDYYINWVKQRPGQGLEWIARIYPGSGNTYYNEKFKGKATLTAEKSSSTAYMQLSSLTSEDSAVYFCARGVYYFDYWGQGTTLTVSS VL: DIVMTQSQKFMSTSVGDRVSVTCKASQNVRTNVAWYQQKPGQSPKALIYSASYRYSGVPDRFTGSGSGTDFTLTISNVQSEDLADYFCQQYNSYPRTFGGGTKLEIKR . Reported EC50 (read off the curve)? ~0.2 µg/mL
